- Tested on: Enterococcus sp.
- assay_info: in vitro antibacterial evaluation, MIC by broth dilution
- Assay type: cell-based
- conditions: Enterococcus faecium (GC 2243); broth dilution, 18 hours at 35° C.
Provide the reported MIC Enterococcus faecium (GC 2243) of each item.
Reply with just the number (in µg/mL).

Look up MIC Enterococcus faecium (GC 2243) for this molecule: CC(c1ccccc1)C1NC(=O)CNC(=O)C(CO)NC(=O)C(C(O)C2CN(Cc3ccccc3-c3ccccc3)C(=N)N2C2OC(CO)C(O)C(O)C2O)NC(=O)C(C(O)C2CNC(=N)N2)NC(=O)C(Cc2ccc(OC3OC(CO)C(OC4OC(CO)C(O)C(O)C4O)C(O)C3O)cc2)NC1=O (stereo not shown) 128

Try this molecule next: CCCCCCCN1CC(C(O)C2NC(=O)C(C(O)C3CNC(=N)N3)NC(=O)C(Cc3ccc(OC4OC(CO)C(OC5OC6COC7(OC6C(O)C5O)C5CC6CC(C5)CC7C6)C(O)C4O)cc3)NC(=O)C(C(C)c3ccccc3)NC(=O)CNC(=O)C(CO)NC2=O)N(C2OC(CO)C(O)C(O)C2O)C1=N (stereo not shown) 2

Try this molecule next: CCC(CC)C1OCC2OC(OC3C(CO)OC(Oc4ccc(CC5NC(=O)C(C(C)c6ccccc6)NC(=O)CNC(=O)C(CO)NC(=O)C(C(O)C6CNC(=N)N6C6OC(CO)C(O)C(O)C6O)NC(=O)C(C(O)C6CNC(=N)N6)NC5=O)cc4)C(O)C3O)C(O)C(O)C2O1 (stereo not shown) 2

Try this molecule next: CC(c1ccccc1)C1NC(=O)CNC(=O)C(CO)NC(=O)C(C(O)C2CNC(=N)N2C2OC(CO)C(O)C(O)C2O)NC(=O)C(C(O)C2CNC(=N)N2)NC(=O)C(Cc2ccc(OC3OC(CO)C(OC4OC5COC(CC67CC8CC(CC(C8)C6)C7)OC5C(O)C4O)C(O)C3O)cc2)NC1=O (stereo not shown) 2

---

- Tested on: Enterococcus sp.
- assay_info: in vitro antibacterial evaluation, MIC by broth dilution
- Assay type: cell-based
- conditions: Enterococcus faecalis (GC 4554); broth dilution, 18 hours at 35° C.
assay_readout: MIC Enterococcus faecalis (GC 4554) (µg/mL)
Reply with just the number (in µg/mL).

Look up MIC Enterococcus faecalis (GC 4554) for this compound: CC(c1ccccc1)C1NC(=O)CNC(=O)C(CO)NC(=O)C(C(O)C2CNC(=N)N2C2OC(CO)C(O)C(O)C2O)NC(=O)C(C(O)C2CNC(=N)N2)NC(=O)C(Cc2ccc(OC3OC(CO)C(OC4OC5COC(c6cccc(Cl)c6)OC5C(O)C4O)C(O)C3O)cc2)NC1=O (stereo not shown) 8

Try this compound next: CC(c1ccccc1)C1NC(=O)CNC(=O)C(CO)NC(=O)C(C(O)C2CNC(=N)N2C2OC(CO)C(O)C(O)C2O)NC(=O)C(C(O)C2CNC(=N)N2)NC(=O)C(Cc2ccc(OC3OC(CO)C(OC4OC5COC(C6CCCCC6)OC5C(O)C4O)C(O)C3O)cc2)NC1=O (stereo not shown) 2

Try this compound next: CC(C)CC1OCC2OC(OC3C(CO)OC(Oc4ccc(CC5NC(=O)C(C(C)c6ccccc6)NC(=O)CNC(=O)C(CO)NC(=O)C(C(O)C6CNC(=N)N6C6OC(CO)C(O)C(O)C6O)NC(=O)C(C(O)C6CNC(=N)N6)NC5=O)cc4)C(O)C3O)C(O)C(O)C2O1 (stereo not shown) 4

---

- Test system: Streptococcus sp.
- assay_info: in vitro antibacterial evaluation, MIC by broth dilution
- Assay type: cell-based
- conditions: broth dilution, 18 hours at 35° C.
assay_readout: MIC Streptococcus pneumoniae (ATCC 6301) (µg/mL)
Reply with just the number (in µg/mL).

Look up MIC Streptococcus pneumoniae (ATCC 6301) for this molecule: CC(c1ccccc1)C1NC(=O)CNC(=O)C(CO)NC(=O)C(C(O)C2CN(c3ncccn3)C(=N)N2C2OC(CO)C(O)C(O)C2O)NC(=O)C(C(O)C2CNC(=Nc3ncccn3)N2)NC(=O)C(Cc2ccc(OC3OC(CO)C(OC4OC5COC6(OC5C(O)C4O)C4CC5CC(C4)CC6C5)C(O)C3O)cc2)NC1=O (stereo not shown) [Example 228] 8

Try this molecule next: Cc1ccc(Oc2cccc(C3OCC4OC(OC5C(CO)OC(Oc6ccc(CC7NC(=O)C(C(C)c8ccccc8)NC(=O)CNC(=O)C(CO)NC(=O)C(C(O)C8CNC(=N)N8C8OC(CO)C(O)C(O)C8O)NC(=O)C(C(O)C8CNC(=N)N8)NC7=O)cc6I)C(O)C5O)C(O)C(O)C4O3)c2)cc1 (stereo not shown) [Example 197] 4

Try this molecule next: Cc1ccc(COCC2OC(OC3C(CO)OC(Oc4ccc(CC5NC(=O)C(C(C)c6ccccc6)NC(=O)CNC(=O)C(CO)NC(=O)C(C(O)C6CNC(=N)N6C6OC(CO)C(O)C(O)C6O)NC(=O)C(C(O)C6CNC(=N)N6)NC5=O)cc4)C(O)C3O)C(O)C(O)C2O)cc1 (stereo not shown) [Example 234] 0.25

Try this molecule next: CC(c1ccccc1)C1NC(=O)CNC(=O)C(CO)NC(=O)C(C(O)C2CNC(=N)N2C2OC(CO)C(O)C(O)C2O)NC(=O)C(C(O)C2CNC(=N)N2)NC(=O)C(Cc2ccc(OC3OC(CO)C(OC4OC5COC(c6ccccc6)OC5C(O)C4O)C(O)C3O)c(I)c2)NC1=O (stereo not shown) [Example 196] 64

---

- System: Enterococcus sp.
- assay_info: in vitro antibacterial evaluation, MIC by broth dilution
- Format: cell-based
- conditions: strain GC 3059; broth dilution, 18 hours at 35° C.
Provide the reported MIC Enterococcus faecalis (GC 3059) of each item.
Reply with just the number (in µg/mL).

Look up MIC Enterococcus faecalis (GC 3059) for this compound: CCOc1cc(C2OCC3OC(OC4C(CO)OC(Oc5ccc(CC6NC(=O)C(C(C)c7ccccc7)NC(=O)CNC(=O)C(CO)NC(=O)C(C(O)C7CNC(=N)N7C7OC(CO)C(O)C(O)C7O)NC(=O)C(C(O)C7CNC(=N)N7)NC6=O)cc5)C(O)C4O)C(O)C(O)C3O2)ccc1OC (centres unmarked) 32

Try this compound next: CC(c1ccccc1)C1NC(=O)CNC(=O)C(CO)NC(=O)C(C(O)C2CNC(=N)N2C2OC(CO)C(O)C(O)C2O)NC(=O)C(C(O)C2CNC(=N)N2)NC(=O)C(Cc2ccc3oc(SCc4ccccc4)nc3c2)NC1=O (centres unmarked) 32

---

- System: Streptococcus sp.
- assay_info: in vitro antibacterial evaluation, MIC by broth dilution
- Type: cell-based
- conditions: broth dilution, inoculum 5×10^5 CFU/mL, 18 hours at 35° C.; strain GC 4564
assay_readout: MIC Streptococcus agalactiae (GC 4564) (µg/mL)
Reply with just the number (in µg/mL).

Look up MIC Streptococcus agalactiae (GC 4564) for this compound: Cc1ccc(COCC2OC(OC3C(CO)OC(Oc4ccc(CC5NC(=O)C(C(C)c6ccccc6)NC(=O)CNC(=O)C(CO)NC(=O)C(C(O)C6CNC(=N)N6C6OC(CO)C(O)C(O)C6O)NC(=O)C(C(O)C6CNC(=N)N6)NC5=O)cc4)C(O)C3O)C(O)C(O)C2O)cc1 (centres unmarked) 0.5

---

Provide the reported MIC Staphylococcus haemolyticus (GC 4546) of each item.
- Tested on: Staphylococcus sp.
- assay_info: in vitro antibacterial evaluation, MIC by broth dilution
- Type: cell-based
- conditions: broth dilution, 18 hours at 35° C.
Numbered stars: 1 amine (or outer) side, 2 acyl side, 3 side chain; on linkers, the order of the positions; unused ones are H or OH. Square brackets hold non-standard residues; d marks the D form. Peptide text beside a SMILES is read from it. ξ: configuration not given here. X1 = N=C1NCC(C(O)C(N[*:1])C(=O)[*:2])N1C1OC(CO)C(O)C(O)C1O; ξEnduracididine(βξ-OH,4'ξ) = N=C1NCC(C(O)C(N)C(=O)O)N1
Reply with just the number (in µg/mL).

Look up MIC Staphylococcus haemolyticus (GC 4546) for this molecule: COc1ccc2cc(COCC3OC(OC4C(CO)OC(Oc5ccc(CC6NC(=O)C(C(C)c7ccccc7)NC(=O)CNC(=O)C(CO)NC(=O)C(CC7CNC(=N)N7C7OC(CO)C(O)C(O)C7O)NC(=O)C(CC7CNC(=N)N7)NC6=O)cc5)C(O)C4O)C(O)C(O)C3O)ccc2c1 (centres unmarked) 4

Try this molecule next: CCCCCC1OCC2OC(OC3C(CO)OC(Oc4ccc(CC5NC(=O)C(C(C)c6ccccc6)NC(=O)CNC(=O)C(CO)NC(=O)C(C(O)C6CNC(=N)N6C6OC(CO)C(O)C(O)C6O)NC(=O)C(C(O)C6CNC(=N)N6)NC5=O)cc4)C(O)C3O)C(O)C(O)C2O1 (centres unmarked) 1

Try this molecule next: CC(C)CC(=O)OC1C(OC2C(CO)OC(Oc3ccc(CC4NC(=O)C(C(C)c5ccc(F)cc5)NC(=O)CNC(=O)C(CO)NC(=O)C(C(O)C5CNC(=N)N5C5OC(CO)C(O)C(O)C5O)NC(=O)C(C(O)C5CNC(=N)N5)NC4=O)cc3)C(O)C2O)OC(CO)C(O)C1O (centres unmarked) [Example 261b] 8

Try this molecule next: COc1ccc(COC2C(CO)OC(OC3C(CO)OC(Oc4ccc(CC5NC(=O)C(C(C)c6ccccc6)NC(=O)CNC(=O)C(CO)NC(=O)C(C(O)C6CNC(=N)N6C6OC(CO)C(O)C(O)C6O)NC(=O)C(C(O)C6CNC(=N)N6)NC5=O)cc4)C(O)C3O)C(O)C2O)cc1OCc1ccccc1 (centres unmarked) [Example 239a] 2

Try this molecule next: CCCCCNC(=O)OCC1OC(OC2C(CO)OC(Oc3ccc(CC4NC(=O)C(C(C)c5ccccc5)NC(=O)CNC(=O)C(CO)NC(=O)C(C(O)C5CNC(=N)N5C5OC(CO)C(O)C(O)C5O)NC(=O)C(C(O)C5CNC(=N)N5)NC4=O)cc3)C(O)C2O)C(O)C(O)C1O (centres unmarked) [Example 251b] 8

Try this molecule next: CC(=O)OCC1OC(OC2C(CO)OC(Oc3ccc(CC4NC(=O)C(C(C)c5ccccc5)NC(=O)CNC(=O)C(CO)NC(=O)C(C(O)C5CNC(=N)N5C5OC(CO)C(O)C(O)C5O)NC(=O)C(C(O)C5CNC(=N)N5)NC4=O)cc3)C(O)C2O)C(O)C(OC(=O)CCC(C)C)C1O (centres unmarked) [Example 270b] 4

Try this molecule next: CC(c1ccccc1)C1NC(=O)CNC(=O)C(CO)NC(=O)C(CC2CNC(=N)N2C2OC(CO)C(O)C(O)C2O)NC(=O)C(CC2CNC(=N)N2)NC(=O)C(Cc2ccc(OC3OC(CO)C(OC4OC(CO)C(OCc5ccc(OCc6ccccc6)cc5)C(O)C4O)C(O)C3O)cc2)NC1=O (centres unmarked) [Example 246a] 1

Try this molecule next: N=C1NCC(C(O)C2NC(=O)C(Cc3ccc(O)cc3)NC(=O)C(Cc3ccccc3)NC(=O)CNC(=O)C(CO)NC(=O)C(C(O)C3CNC(=N)N3C3OC(CO)C(O)C(O)C3O)NC2=O)N1 (stereo not drawn) [Example 279a] (cyclo(GFY[ξEnduracididine(βξ-OH,4'ξ)][X1]S); configuration not given here) 64

Try this molecule next: COc1ccc2cc(COC3C(OC4C(CO)OC(Oc5ccc(CC6NC(=O)C(C(C)c7ccccc7)NC(=O)CNC(=O)C(CO)NC(=O)C(C(O)C7CNC(=N)N7C7OC(CO)C(O)C(O)C7O)NC(=O)C(C(O)C7CNC(=N)N7)NC6=O)cc5)C(O)C4O)OC(CO)C(O)C3O)ccc2c1 (centres unmarked) [Example 230c] 64

Try this molecule next: CC(C)CCC(=O)OC1C(OC2C(CO)OC(Oc3ccc(CC4NC(=O)C(C(C)c5ccccc5)NC(=O)CNC(=O)C(CO)NC(=O)C(C(O)C5CNC(=N)N5C5OC(CO)C(O)C(O)C5O)NC(=O)C(C(O)C5CNC(=N)N5)NC4=O)cc3)C(O)C2O)OC(CO)C(O)C1O (centres unmarked) [Example 270a] 2

Try this molecule next: CC(c1ccccc1)C1NC(=O)CNC(=O)C(CO)NC(=O)C(C(O)C2CNC(=N)N2C2OC(CO)C(O)C(O)C2O)NC(=O)C(C(O)C2CNC(=N)N2)NC(=O)C(Cc2ccc(OC3OC(CO)C(OC4OC(CO)C(OCC=Cc5ccc(N(C)C)cc5)C(O)C4O)C(O)C3O)cc2)NC1=O (centres unmarked) [Example 243a] 32
